Could you please report measured koff for the items listed next?
target: T1, canine NGF tagged at the C-terminus with the Flag tag (canine, UniProt A0A8I3PYI3 122-241); assay: SPR off-rate screen, Fab-SASA on BSA chip
T1 construct: mature; Expressed with baculovirus technology; also called feline NGF (processed form identical)
T1 sequence (A0A8I3PYI3 entry or part of it): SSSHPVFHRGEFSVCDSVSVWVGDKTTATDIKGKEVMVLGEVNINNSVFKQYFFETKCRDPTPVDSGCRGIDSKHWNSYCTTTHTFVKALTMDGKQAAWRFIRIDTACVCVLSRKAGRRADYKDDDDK
Just so you know, I need the unit written after the number.

Query: Entry under review: felinized clone 101 Fab-SASA variant N53I (VL) (Fab, V domains shown, not shown: small tags and cut ends) VH: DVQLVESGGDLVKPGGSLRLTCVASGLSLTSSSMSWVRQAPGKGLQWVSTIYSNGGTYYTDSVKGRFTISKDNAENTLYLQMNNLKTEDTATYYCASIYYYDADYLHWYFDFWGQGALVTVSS VL: EIQMTQSPTSLSASVGDRVTITCRASEGISNNLSWYQQTPGKAPKLLIYATSILHSGVPSRFSGSGSGTDFTLTISSLQPEDFATYYCQQGYKWPLTFGGGTKLEITR . Reported koff?
Reply: 0.000389 s⁻¹

Query: Queued: felinized clone 101 Fab-SASA variant Y99F (VH) (Fab, V domains shown, not shown: small tags and cut ends) VH: DVQLVESGGDLVKPGGSLRLTCVASGLSLTSSSMSWVRQAPGKGLQWVSTIYSNGGTYYTDSVKGRFTISKDNAENTLYLQMNNLKTEDTATYYCASIFYYDADYLHWYFDFWGQGALVTVSS VL: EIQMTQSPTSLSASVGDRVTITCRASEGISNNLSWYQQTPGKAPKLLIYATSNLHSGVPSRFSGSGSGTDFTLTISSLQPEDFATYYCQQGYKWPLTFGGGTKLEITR
Reply: 0.000469 s⁻¹

Attribution: patent US20250011410A1
